Kindly state Median MFI (PE-A) for each of the entries shown.
Target: T1, HLA-A*02:01 on T2 cells without peptide loading (human)
T1 construct: whole, on cells; TAP-deficient T2 cells with no exogenous peptide
Experiment: flow cytometry, scFv phage on T2 cells, anti-M13 + PE anti-mouse IgG
Supply the numeric figure in MFI, leaving out any unit text.

Please give the measured Median MFI (PE-A) for this binder: Phage clone 13 (scFv, fusion to the phage coat protein not described) scFv: DVVMTQSPLSLPVTLGQPASISCRSSQSLIYSNGNTYLTWFHQRPGQPPRRLIHKVSNRDSGVPDRFSGSGSGSDFTLKISRVEAEDVGIYYCMQGTHWPPTFGGGTKLEIKRSRGGGGSGGGGSGGGGSLEMAEVQLVQSGAEVKKPGESLKISCKGSGYSFTSYWIGWVRQMPGKGLEWMGIIYPGDSDTRYSPSFQGQVTISADKSISTAYLQWSSLKASDTAMYYCARGYDVWGQGTLVTVSS
543

Then Phage clone 31 (scFv, fusion to the phage coat protein not described) scFv: QAVLTQPSSLSASPGASASLTCTLRSGINVGTYRIYWYQQKPGSPPQYLLRYKSDSDKQQGSGVPSRFSGSKDASANAGILLISGLQSEDEADYYCMIWHSSAWVFGGGTKLTVLGSRGGGGSGGGGSGGGGSLEMAEVQLVESGGGLVQPGGSLRLSCAASGLTFDRYAMSWVRQAAGKGLERFSAITGDGYYTYYADSVKGRFTISRDNSKNTLYLQMNSLGAEDTAVYYCARLSGIGRSSYDGWGQGTLVTVSS ?
125

Now try Phage clone 10 (scFv, fusion to the phage coat protein not described) scFv: EIVLTQSPLSLPVTLGQPASISCRSSQSLVYSNGNTYLSWFHQRPGQSPRRLIYKVSKRDSGVPDRFSGSGSGTDFTLKISRVEAEDVGVFYCMQGTYWPYTFGQGTKLEIKRSRGGGGSGGGGSGGGGSLEMAEVQLVQSGAEVKKPGESLKISCKGSGYSFTSYWIGWVRQMPGKGLEWMGIIYPGDSDTRYSPSFQGQVTISADKSISTAYLQWSSLKASDTAMYYCARGFDNWGQGTLVTVSS .
686

And for Phage clone 16 (scFv, fusion to the phage coat protein not described) scFv: DVVMTQSPLSLPVTLGQPASISCRSSQSLIYSNGNTYLTWFHQRPGQPPRRLIHKVSNRDSGVPDRFSGSGSGSDFTLKISRVEAEDVGIYYCMQGTHWPPTFGGGTKLEIKRSRGGGGSGGGGSGGGGSLEMAEVQLVQSGAEVKKPGESLKISCKGSGYSFTSYWIGWVRQMPGKGLEWMGIIYPGDSDTRYSPSFQGQVTISADKSISTAYLQWSSLKASDTAMYYCARGYDSWGQGTLVTVSS ?
1700
